molecular target: PPAR γ-RXRα heterodimer (Homo sapiens); construct: expressed in transfected cells; host or cells: CHO-K1 (PPAR γ:RXRα:4ERPP/CHO-K1); experiment: PPAR γ-RXRα heterodimer ligand activity (luciferase reporter in PPAR γ:RXRα:4ERPP/CHO-K1 cells); format: cell-based; conditions: maximum luciferase induction relative to 5-{4-[2-(5-methyl-2-phenyl-1,3-oxazol-4-yl)ethoxy]benzyl}-1,3-thiazolidin-2,4-dione (PPARγ full agonist) as 100%
measuredEndpoint: Vmax (%)
Report only the number, with the unit % understood.

Consider the reported Vmax (%) for these compounds:
INSERT INTO assay_data (compound, measuredon, assayresult) VALUES
  ('Cc1oc(-c2ccccc2)nc1COc1ccc(C(=O)c2ccccc2OC(C)C(=O)O)cc1 (stereo not shown)', 'PPAR γ-RXRα heterodimer (Homo sapiens)', 70),
  ('COc1ccc(C(=O)c2ccc(OCc3nc(-c4ccccc4)oc3C)cc2)c(O[C@H](C)C(=O)O)c1', 'PPAR γ-RXRα heterodimer (Homo sapiens)', 60);

The record that follows has no Vmax (%) shown yet.
Incoming: // lookup Vmax (%) for COc1cc(C)c(C(=O)c2ccc(OCc3nc(-c4ccccc4)oc3C)cc2)c(O[C@H](C)C(=O)O)c1
Outgoing: 73

---

# key: entry, value: melting point

Worked cases, answers included:
INSERT INTO measurements (molecule, measuredendpoint, assayresult) VALUES
  ('COc1ccc(C(C)(O)c2cccc(OCc3nc(-c4ccccc4)oc3C)c2)c(OCC(=O)O)c1 (centres unmarked) [Example 6]', 'melting point', '148 to 149 °C'),
  ('COc1ccc(C(=O)c2ccc(OCc3nc(-c4ccccc4)sc3C)cc2)c(OC(C)(C)C(=O)O)c1 [Example 29]', 'melting point', '145 to 147 °C');

Incoming: Need melting point of COc1ccc(C(=O)c2ccc(OCc3nc(-c4ccccc4)oc3C)cc2)c(OC(C)(C)C(=O)O)c1 [Example 14] , thanks.
Outgoing: 175 to 177 °C

Incoming: How about this molecule: COc1ccc(C(=O)c2cccc(OCc3nc(-c4ccccc4)oc3C)c2)c(OCCOC(C)=O)c1 [Example 2]
Outgoing: 90 to 91 °C

Incoming: Field entry: Cc1oc(-c2ccccc2)nc1COc1ccc(C(=O)c2ccccc2OC(C)C(=O)O)cc1 (centres unmarked) [Example 22]
Outgoing: 186 to 187 °C

---

system: KKAy mice; assay: Blood glucose and blood lipid (triglyceride) lowering action in mice; assay type: in vivo; conditions: decrease rate of blood glucose vs non-administration group (100%), 0.01% in powder diet, 6 days
measuredEndpoint: hypoglycemic action (%)
Give the number; % is assumed, so skip it.

The cases that follow already have their hypoglycemic action (%) on record.
INSERT INTO results (molecule, measuredon, measuredendpoint, assayresult) VALUES
  ('COc1ccc(C(=O)c2ccc(OCc3nc(-c4ccccc4)oc3C)nc2)c(OC(C)C(=O)O)c1 (stereo not shown)', 'KKAy mice', 'hypoglycemic action (%)', 32),
  ('COc1ccc(C(=O)c2ccc(OCc3nc(-c4ccccc4)oc3C)cc2)c(OC(C)(C)C(=O)O)c1', 'KKAy mice', 'hypoglycemic action (%)', 38),
  ('Cc1oc(-c2ccccc2)nc1COc1ccc(C(=O)c2ccccc2OC(C)C(=O)O)cc1 (stereo not shown)', 'KKAy mice', 'hypoglycemic action (%)', 41);

Incoming: So what does the record say about hypoglycemic action (%) for COc1ccc(C(=O)c2ccc(OCc3nc(-c4ccccc4)oc3C)cc2)c(O[C@H](C)C(=O)O)c1 ?
Outgoing: 46

---

Molecular target: PPAR γ-RXRα heterodimer (Homo sapiens, UniProt P37231)
Sequence (P37231 29-505 limits assumed): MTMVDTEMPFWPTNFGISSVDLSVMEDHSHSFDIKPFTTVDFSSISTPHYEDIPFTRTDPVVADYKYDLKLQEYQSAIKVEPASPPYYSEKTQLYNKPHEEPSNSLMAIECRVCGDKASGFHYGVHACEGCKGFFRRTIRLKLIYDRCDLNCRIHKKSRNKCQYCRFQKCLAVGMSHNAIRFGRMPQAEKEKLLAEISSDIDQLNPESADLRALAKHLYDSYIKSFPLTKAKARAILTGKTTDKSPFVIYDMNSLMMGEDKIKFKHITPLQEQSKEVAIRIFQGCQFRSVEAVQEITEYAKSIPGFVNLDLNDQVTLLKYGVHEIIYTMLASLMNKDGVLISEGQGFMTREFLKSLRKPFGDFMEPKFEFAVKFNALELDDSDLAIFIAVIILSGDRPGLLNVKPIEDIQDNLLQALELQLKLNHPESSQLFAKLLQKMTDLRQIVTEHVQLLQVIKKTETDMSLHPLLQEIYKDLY
Sequence (P19793 1-462 partner): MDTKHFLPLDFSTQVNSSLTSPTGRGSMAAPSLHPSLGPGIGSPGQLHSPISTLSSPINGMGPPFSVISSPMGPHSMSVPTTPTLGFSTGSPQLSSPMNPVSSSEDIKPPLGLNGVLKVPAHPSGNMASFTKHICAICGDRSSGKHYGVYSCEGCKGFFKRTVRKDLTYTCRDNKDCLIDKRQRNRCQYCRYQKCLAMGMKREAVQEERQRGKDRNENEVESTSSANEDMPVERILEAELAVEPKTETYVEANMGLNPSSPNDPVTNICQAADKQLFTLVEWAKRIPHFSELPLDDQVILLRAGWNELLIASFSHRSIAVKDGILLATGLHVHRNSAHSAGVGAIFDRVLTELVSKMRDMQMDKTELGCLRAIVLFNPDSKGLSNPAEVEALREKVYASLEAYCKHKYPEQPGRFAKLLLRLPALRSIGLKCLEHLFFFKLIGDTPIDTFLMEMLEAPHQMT
Experiment: PPAR γ-RXRα heterodimer ligand activity (luciferase reporter in PPAR γ:RXRα:4ERPP/CHO-K1 cells)
Details: compound concentration showing 50% of the maximum induction rate of luciferase activity; 18-24 hr incubation
measuredEndpoint: pEC50
The meaning of pEC50 here: minus log10 of the concentration in molar units.

Study these solved cases before continuing.
INSERT INTO results (compound, measuredon, measuredendpoint, assayresult) VALUES
  ('COc1ccc(C(=O)c2ccc(OCc3nc(-c4ccccc4)oc3C)nc2)c(OC(C)C(=O)O)c1 (stereo not shown) [Example 21]', 'PPAR γ-RXRα heterodimer (Homo sapiens, UniProt P37231)', 'pEC50', 8.09),
  ('Cc1oc(-c2ccccc2)nc1COc1ccc(C(=O)c2ccccc2OC(C)C(=O)O)cc1 (stereo not shown) [Example 22]', 'PPAR γ-RXRα heterodimer (Homo sapiens, UniProt P37231)', 'pEC50', 7.48),
  ('COc1ccc(C(=O)c2ccc(OCc3nc(-c4ccccc4)oc3C)cc2)c(OCC(=O)O)c1 [Example 1]', 'PPAR γ-RXRα heterodimer (Homo sapiens, UniProt P37231)', 'pEC50', 7.00);

Incoming: Would you kindly share the measured pEC50 for COc1ccc(C(=O)c2ccc(OCc3nc(-c4ccccc4)oc3C)cc2)c(OC(C)(C)C(=O)O)c1 [Example 14] ?
Outgoing: 7.82

---

System: KKAy mice
Test: Blood glucose and blood lipid (triglyceride) lowering action in mice
Format: in vivo
Settings: decrease rate of blood triglyceride vs non-administration group (100%), 0.01% in powder diet, 6 days
From the text: The test compound was mixed with a powder diet (CE-2, CLEA JAPAN, INC.) at a proportion of 0.01% (0.03% for the compound of Example 1) and freely given to KKAy mice (9 to 12-week-old, 5 mice per group) which are obese non-insulin-dependent diabetes (type-2 diabetes) models, for 6 days. During this period, water was freely given to the mice. The blood was drawn from the orbital venous plexus. […]
measuredEndpoint: hypolipidemic action (%)
Unit % implied. Number only.

Example results:
INSERT INTO results (compound, assayresult) VALUES
  ('COc1ccc(C(=O)c2ccc(OCc3nc(-c4ccccc4)oc3C)cc2)c(OC(C)(C)C(=O)O)c1', 29),
  ('Cc1oc(-c2ccccc2)nc1COc1ccc(C(=O)c2ccccc2OC(C)C(=O)O)cc1 (stereo not shown)', 48),
  ('COc1ccc(C(=O)c2ccc(OCc3nc(-c4ccccc4)oc3C)cc2)c(O[C@H](C)C(=O)O)c1', 12);

Here is another compound to look at.
Incoming: Which hypolipidemic action (%) is listed for COc1ccc(C(=O)c2ccc(OCc3nc(-c4ccccc4)oc3C)nc2)c(OC(C)C(=O)O)c1 (stereo not shown) ?
Outgoing: 14

---

Entries and their melting point values follow.

Solved entries:
INSERT INTO measurements (compound, assayresult) VALUES
  ('COc1ccc(C(=O)c2ccc(OCc3ccccc3)nc2)c(OC(C)(C)C(=O)OC(C)(C)C)c1 [Example 45]', '58 to 60 °C'),
  ('COc1cc(C)c(C(=O)c2ccc(OCc3nc(-c4ccccc4)oc3C)cc2)c(O[C@H](C)C(=O)O)c1 [Example 42]', '122 to 123 °C');

Incoming: So what's the measured melting point for this one? CCOC(=O)COc1cc(O)ccc1C(=O)c1ccc(OCc2nc(-c3ccccc3)oc2C)cc1 [Example 12]
Outgoing: 184 to 186 °C

Incoming: Entry COc1ccc(C(=O)c2ccc(OCc3nc(-c4ccccc4)oc3C)nc2)c(OC(C)C(=O)O)c1 (stereo not shown) [Example 21] please
Outgoing: 162 to 163 °C

Incoming: Cool, now CCC(Oc1cc(OC)ccc1C(=O)c1ccc(OCc2nc(-c3ccccc3)oc2C)cc1)C(=O)O (stereo not shown) [Example 17]
Outgoing: 161 to 162 °C

Incoming: Quick one: COc1ccc(C(=O)c2cccc(OCc3nc(-c4ccccc4)oc3C)c2)c(OCC(=O)O)c1 [Example 4]
Outgoing: 198 to 199 °C

Incoming: Same for COc1ccc(C(=O)c2ccc(OCc3coc(-c4ccccc4)n3)cc2)c(OC(C)(C)C(=O)O)c1 [Example 32]
Outgoing: 165 to 167 °C

Incoming: Cool, now COc1ccc(C(=O)c2ccc(OCCc3nc(-c4ccccc4)oc3C)cc2)c(OC(C)(C)C(=O)O)c1 [Example 38]
Outgoing: 81 to 82 °C

Incoming: Item: COc1ccc(C(=O)c2ccc(OCc3nc(-c4ccccc4)oc3C)cc2)c(OC(C)C(=O)O)c1 (stereo not shown) [Example 13]
Outgoing: 100 to 102 °C

Incoming: Same for COc1ccc(C(=O)c2ccc(OCc3nc(-c4ccccc4)oc3C)nc2)c(O[C@H](C)C(=O)O)c1 [Example 54]
Outgoing: 164.5 to 165.5 °C

Incoming: Also need COc1ccc(C(=O)c2ccc(OCc3nc(-c4ccccc4)oc3C)cc2)c(OC(F)(F)C(=O)O)c1 [Example 19] , thanks.
Outgoing: 166 to 167 °C

Incoming: Do the same for Cc1oc(-c2ccccc2)nc1COc1ccc(C(=O)c2ccccc2OCC(=O)O)cc1 [Example 8] please
Outgoing: 174 to 175 °C

Incoming: Moving on to the next compound: COc1ccc(C(=O)c2ccc(OCc3nc(-c4ccccc4)oc3C)cc2)c(O[C@H](C)C(=O)O)c1 [Example 53]
Outgoing: 169 to 170 °C

Incoming: Input COc1ccc(C(=O)c2ccc(OCc3nc(-c4ccccc4)oc3C)cc2)c(OC(C(=O)O)C(C)C)c1 (stereo not shown) [Example 18]
Outgoing: 87 to 88 °C

Incoming: Similarly, COc1ccc(C(=O)c2ccc(OCc3nc(-c4ccccc4)oc3C)cc2)c(OCC(=O)O)c1 [Example 1] ?
Outgoing: 146 to 147 °C

Incoming: And then Cc1oc(-c2ccccc2)nc1COc1ccc(C(=O)c2ccc(O)cc2OCC(=O)O)cc1 [Example 11] , what is it?
Outgoing: 229 to 230 °C

Incoming: Now try COc1ccc(C(=O)c2ccc(OCc3nc(-c4ccccc4)oc3C)cc2)c(O[C@@H](C)C(=O)O)c1 [Example 57] .
Outgoing: 169 to 170 °C

Incoming: Continue with CCCC(Oc1cc(OC)ccc1C(=O)c1ccc(OCc2nc(-c3ccccc3)oc2C)cc1)C(=O)O (stereo not shown) [Example 20]
Outgoing: 139 to 140 °C

Incoming: Also need COc1ccc(C(=O)c2ccc(Oc3ccccc3)nc2)c(OC(C)(C)C(=O)O)c1 [Example 51] , thanks.
Outgoing: 167.5 to 168.5 °C

Incoming: Now this one: CCOC(c1cccc(OCc2nc(-c3ccccc3)oc2C)c1)c1ccc(OC)cc1OCC(=O)O (stereo not shown) [Example 7]
Outgoing: 129 to 130 °C

Incoming: Now consider COc1ccc(C(C)(O)c2cccc(OCc3nc(-c4ccccc4)oc3C)c2)c(OCCOC(C)=O)c1 (stereo not shown) [Example 5] .
Outgoing: 144 to 145 °C

Incoming: Field entry: COc1ccc(C(=O)c2ccc(OCc3nc(-c4cccc(OS(C)(=O)=O)c4)oc3C)cc2)c(OC(C)(C)C(=O)O)c1 [Example 37]
Outgoing: 182 to 183 °C
